- Test system: Acinetobacter baumannii, ATCC 17978
- Assay comment: MIC testing, broth microdilution in CAMHB
- Type: cell-based
- Cond: 37° C., 18-20 hr, lowest concentration that completely inhibits visible growth
# Compound MICs, Acinetobacter baumannii, ATCC 17978 per record follows
Observation type: Compound MICs, Acinetobacter baumannii, ATCC 17978 (µg/mL)

Smiles representation: Nc1nc(N)c2c(ccc3c2ccn3Cc2ccc(Br)c3ccccc23)n1
Result units: µg/mL
Measurement qualifier: =
Reported: 64

Smiles representation: Cc1ccc(Cn2ccc3c4c(N)nc(N)nc4ccc32)c2ccccc12
Result units: µg/mL
Measurement qualifier: =
Reported: 7.11

Smiles representation: Nc1nc(N)c2c(ccc3c2ccn3Cc2ccc([N+](=O)[O-])cc2)n1
Result units: µg/mL
Measurement qualifier: =
Reported: 21.3

Smiles representation: CC[Si](C#Cc1ccc(CNc2nc(N)nc3ccc4c(ccn4Cc4ccc(C#C[Si](CC)(CC)CC)cc4)c23)cc1)(CC)CC
Result units: µg/mL
Measurement qualifier: >
Reported: 64

Smiles representation: Nc1nc(N)c2c(ccc3c2ccn3Cc2ccc(B(O)O)cc2)n1
Result units: µg/mL
Measurement qualifier: >
Reported: 64

Smiles representation: Nc1nc(N)c2c(ccc3c2ccn3Cc2ccc(-c3ccccc3)cn2)n1
Result units: µg/mL
Measurement qualifier: =
Reported: 2.37

Smiles representation: Nc1nc(N)c2c(ccc3c2ccn3Cc2cccc(Cl)c2Cl)n1
Result units: µg/mL
Measurement qualifier: =
Reported: 2.37

Smiles representation: C#Cc1ccc(Cn2ccc3c4c(N)nc(N)nc4c(Br)cc32)cc1
Result units: µg/mL
Measurement qualifier: >
Reported: 64

Smiles representation: C=C(Cn1ccc2c3c(N)nc(N)nc3c(Br)cc21)C(=O)OC
Result units: µg/mL
Measurement qualifier: =
Reported: 64

Smiles representation: CC#Cc1ccc(Cn2ccc3c4c(N)nc(NC5CC5)nc4ccc32)cc1
Result units: µg/mL
Measurement qualifier: =
Reported: 21.3

Smiles representation: Nc1nc(N)c2c(n1)c(-c1cccnc1)cc1c2ccn1Cc1ccc(F)cc1
Result units: µg/mL
Measurement qualifier: =
Reported: 64

Smiles representation: C=Cc1ccc(Cn2ccc3c4c(N)nc(N)nc4ccc32)cc1
Result units: µg/mL
Measurement qualifier: =
Reported: 7.11

Smiles representation: Nc1nc(N)c2c(n1)c(Br)cc1c2ccn1Cc1ccc(F)cc1
Result units: µg/mL
Measurement qualifier: =
Reported: 7.11

Smiles representation: Nc1nc(N)c2c(ccc3c2ccn3Cc2ccnc(F)c2)n1
Result units: µg/mL
Measurement qualifier: =
Reported: 2.37

Smiles representation: COc1ccc(Cn2ccc3c4c(N)nc(N)nc4ccc32)c(Cl)c1
Result units: µg/mL
Measurement qualifier: =
Reported: 7.11

Smiles representation: CC(C)C#Cc1ccc(Cn2ccc3c4c(N)nc(N)nc4ccc32)cc1
Result units: µg/mL
Measurement qualifier: =
Reported: 21.3

Smiles representation: COc1ccc(-c2cc3c(ccn3Cc3ccc(F)cc3)c3c(N)nc(N)nc23)cc1
Result units: µg/mL
Measurement qualifier: =
Reported: 21.3

Smiles representation: Nc1nc(N)c2c(ccc3c2ccn3Cc2ccc3c(c2)OCO3)n1
Result units: µg/mL
Measurement qualifier: =
Reported: 7.11

----------
- Tested on: Escherichia coli, ATCC BAA-198
- Assay comment: MIC testing, broth microdilution in CAMHB
- Format: cell-based
- Cond: 37° C., 18-20 hr, lowest concentration that completely inhibits visible growth
# Compound MICs, Escherichia coli, ATCC BAA-198 per record follows
Observation type: Compound MICs, Escherichia coli, ATCC BAA-198 (µg/mL)

Smiles representation: C=C(Cn1ccc2c3c(N)nc(N)nc3c(Br)cc21)C(=O)OC
Result units: µg/mL
Measurement qualifier: >
Reported: 64
//
Smiles representation: Nc1nc(N)c2c(ccc3c2ccn3CCc2ccc(F)cc2)n1
Result units: µg/mL
Measurement qualifier: =
Reported: 7.11
//
Smiles representation: CCc1ccc(Cn2ccc3c4c(N)nc(N)nc4ccc32)cc1
Result units: µg/mL
Measurement qualifier: =
Reported: 7.11
//
Smiles representation: Nc1nc(N)c2c(ccc3c2ccn3Cc2ccc(C#Cc3ccccc3)cc2)n1
Result units: µg/mL
Measurement qualifier: >
Reported: 64
//
Smiles representation: NCC#Cc1ccc(Cn2ccc3c4c(N)nc(N)nc4ccc32)cc1
Result units: µg/mL
Measurement qualifier: =
Reported: 7.11
//
Smiles representation: Nc1nc(N)c2c(n1)c(-c1ccc(F)cc1)cc1c2ccn1Cc1ccc(F)cc1
Result units: µg/mL
Measurement qualifier: >
Reported: 64
//
Smiles representation: CC(C)C#Cc1ccc(Cn2ccc3c4c(N)nc(NC5CC5)nc4ccc32)cc1
Result units: µg/mL
Measurement qualifier: =
Reported: 21.3
//
Smiles representation: CC(C)C#Cc1ccc(Cn2ccc3c4c(N)nc(N)nc4ccc32)cc1
Result units: µg/mL
Measurement qualifier: =
Reported: 7.11
//
Smiles representation: Nc1nc(N)c2c(ccc3c2ccn3Cc2ccc(C(F)(F)F)nc2)n1
Result units: µg/mL
Measurement qualifier: =
Reported: 7.11

Values compiled from patent US20230295164A1.
